Reported EC50 values for the following compounds.
- target: UniProtKB O15552
- protocolNotes: Ca-Flux functional assay: determination of agonist/positive allosteric modulator (PAM) activity
- settings: CHO-K1 Gα16 cells stably expressing human GPR43; compound added with EC20 sodium acetate; intracellular Ca2+ by FLIPR; does not distinguish agonist from PAM
quantity: EC50 (nM)

[[record]]
smi = "Nc1[nH]c2c(OC3CCCCC3)ncnc2c1S(=O)(=O)c1ccccc1"
target = "UniProtKB O15552"
unitstext = "nM"
reportedmeasurement = 39

[[record]]
smi = "Cc1nc(N2C[C@@H](C)O[C@@H](C)C2)c2[nH]c(N)c(S(=O)(=O)c3ccccc3)c2n1"
target = "UniProtKB O15552"
unitstext = "nM"
reportedmeasurement = 6

[[record]]
smi = "C[C@@H]1CN(c2ncnc3c(S(=O)(=O)c4ccccc4)c(N)[nH]c23)C[C@H](C)O1"
target = "UniProtKB O15552"
unitstext = "nM"
reportedmeasurement = 14

[[record]]
smi = "Cc1nc(N2CCOC(C)(C)C2)c2[nH]c(N)c(S(=O)(=O)c3ccc(F)cc3F)c2n1"
target = "UniProtKB O15552"
unitstext = "nM"
reportedmeasurement = 6

[[record]]
smi = "Cc1nc(N2CCO[C@H](C(F)(F)F)C2)c2[nH]c(N)c(S(=O)(=O)c3ccc(Cl)cc3F)c2n1"
target = "UniProtKB O15552"
unitstext = "nM"
reportedmeasurement = 2

[[record]]
smi = "COc1ccc(S(=O)(=O)c2c(N)[nH]c3c(N4CCC5(CC4)CC5)ncnc23)cc1"
target = "UniProtKB O15552"
unitstext = "nM"
reportedmeasurement = 26

[[record]]
smi = "Nc1[nH]c2c(N3CCCC(F)(F)C3)ncnc2c1S(=O)(=O)c1ccccc1"
target = "UniProtKB O15552"
unitstext = "nM"
reportedmeasurement = 89

[[record]]
smi = "Cc1nc(OC2CC(F)(F)C2)c2[nH]c(N)c(S(=O)(=O)c3ccccc3)c2n1"
target = "UniProtKB O15552"
unitstext = "nM"
reportedmeasurement = 66


###

- target: human GPR43 (Homo sapiens (Human))
- Sequence (O15552 whole entry): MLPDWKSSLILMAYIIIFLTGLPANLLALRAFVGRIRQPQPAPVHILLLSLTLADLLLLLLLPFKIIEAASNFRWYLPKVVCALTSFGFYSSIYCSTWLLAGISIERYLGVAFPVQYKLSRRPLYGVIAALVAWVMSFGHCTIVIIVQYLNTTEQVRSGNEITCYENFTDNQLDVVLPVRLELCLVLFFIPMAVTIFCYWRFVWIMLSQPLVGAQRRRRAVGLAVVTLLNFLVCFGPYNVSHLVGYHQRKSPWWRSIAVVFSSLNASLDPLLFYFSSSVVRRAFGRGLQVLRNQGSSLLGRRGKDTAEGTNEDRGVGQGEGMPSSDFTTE
- protocolNotes: Ca-Flux functional assay: determination of agonist/positive allosteric modulator (PAM) activity
- settings: CHO-K1 Gα16 cells stably expressing human GPR43; compound added with EC20 sodium acetate; intracellular Ca2+ by FLIPR; does not distinguish agonist from PAM
pEC50: −log10 of the molar value.
quantity: pEC50

[[record]]
molecule = "COc1ccc(S(=O)(=O)c2c(N)[nH]c3c(N4CCO[C@@H](C)C4)nc(C)nc23)c(F)c1 [Example 233]"
target = "human GPR43 (Homo sapiens (Human))"
reportedmeasurement = 8.52

[[record]]
molecule = "CC1CN(c2ncnc3c(S(=O)(=O)c4ccccc4)c(N)[nH]c23)CC(C)S1 (stereo not drawn) [Example 197]"
target = "human GPR43 (Homo sapiens (Human))"
reportedmeasurement = 8.40

[[record]]
molecule = "COc1ccc(S(=O)(=O)c2c(N)[nH]c3c(N4C[C@@H](C)O[C@@H](C)C4)ncnc23)cc1 [Example 130]"
target = "human GPR43 (Homo sapiens (Human))"
reportedmeasurement = 7.70

[[record]]
molecule = "Cc1nc(OC(C)C2CCCCC2)c2[nH]c(N)c(S(=O)(=O)c3ccccc3)c2n1 (stereo not drawn) [Example 255]"
target = "human GPR43 (Homo sapiens (Human))"
reportedmeasurement = 7.19

[[record]]
molecule = "CCOC1CCCN(c2ncnc3c(S(=O)(=O)c4ccccc4)c(N)[nH]c23)C1 (stereo not drawn) [Example 113]"
target = "human GPR43 (Homo sapiens (Human))"
reportedmeasurement = 6.07

[[record]]
molecule = "Nc1[nH]c2c(C3CCCCC3)ncnc2c1S(=O)(=O)c1ccccc1F [Example 89]"
target = "human GPR43 (Homo sapiens (Human))"
reportedmeasurement = 7.96

[[record]]
molecule = "CC1CN(c2ncnc3c(Sc4ccccc4)c(N)[nH]c23)CCO1 (stereo not drawn) [Example 236]"
target = "human GPR43 (Homo sapiens (Human))"
reportedmeasurement = 7.38

[[record]]
molecule = "CC1(C)CCN(c2ncnc3c(S(=O)(=O)c4ccccc4)c(N)[nH]c23)C1 [Example 47]"
target = "human GPR43 (Homo sapiens (Human))"
reportedmeasurement = 6.45

[[record]]
molecule = "Cc1nc(N2CCO[C@H](C(F)(F)F)C2)c2[nH]c(N)c(S(=O)(=O)c3ccc(F)cc3F)c2n1 [Example 283]"
target = "human GPR43 (Homo sapiens (Human))"
reportedmeasurement = 9.00

[[record]]
molecule = "C[C@H]1CN(c2ncnc3c(S(=O)(=O)c4ccccc4)c(N)[nH]c23)CCO1 [Example 86]"
target = "human GPR43 (Homo sapiens (Human))"
reportedmeasurement = 7.72

[[record]]
molecule = "Cc1nc(N2CCOC(C)(C)C2)c2[nH]c(N)c(S(=O)(=O)c3cccc(F)c3F)c2n1 [Example 280]"
target = "human GPR43 (Homo sapiens (Human))"
reportedmeasurement = 8.52

[[record]]
molecule = "COc1ccc(S(=O)(=O)c2c(N)[nH]c3c(N4CCOC(C)(C)C4)ncnc23)cc1 [Example 129]"
target = "human GPR43 (Homo sapiens (Human))"
reportedmeasurement = 7.48

[[record]]
molecule = "Nc1[nH]c2c(OCc3ccccc3)ncnc2c1S(=O)(=O)c1ccccc1 [Example 168]"
target = "human GPR43 (Homo sapiens (Human))"
reportedmeasurement = 6.87

[[record]]
molecule = "COc1ccc(S(=O)(=O)c2c(N)[nH]c3c(-c4ccccc4)ncnc23)cc1 [Example 76]"
target = "human GPR43 (Homo sapiens (Human))"
reportedmeasurement = 6.87

[[record]]
molecule = "CC1(COc2ncnc3c(S(=O)(=O)c4ccccc4)c(N)[nH]c23)CC1 [Example 173]"
target = "human GPR43 (Homo sapiens (Human))"
reportedmeasurement = 6.44

[[record]]
molecule = "CC1CC(Oc2ncnc3c(S(=O)(=O)c4ccccc4)c(N)[nH]c23)CC(C)O1 (stereo not drawn) [Example 210]"
target = "human GPR43 (Homo sapiens (Human))"
reportedmeasurement = 6.81

[[record]]
molecule = "CC1CN(c2ncnc3c(S(=O)(=O)c4cc(F)cc(F)c4)c(N)[nH]c23)CCO1 (stereo not drawn) [Example 147]"
target = "human GPR43 (Homo sapiens (Human))"
reportedmeasurement = 7.06

[[record]]
molecule = "Cc1ccccc1-c1ncnc2c(S(=O)(=O)c3ccccc3)c(N)[nH]c12 [Example 108]"
target = "human GPR43 (Homo sapiens (Human))"
reportedmeasurement = 7.04

[[record]]
molecule = "Cc1nc(N2CCO[C@H](C(F)(F)F)C2)c2[nH]c(N)c(S(=O)(=O)c3ccccc3F)c2n1 [Example 281]"
target = "human GPR43 (Homo sapiens (Human))"
reportedmeasurement = 9.00

[[record]]
molecule = "Nc1[nH]c2c(N3CCC3)ncnc2c1S(=O)(=O)c1ccccc1 [Example 30]"
target = "human GPR43 (Homo sapiens (Human))"
reportedmeasurement = 5.02

[[record]]
molecule = "Cc1nc(OC(C)C)c2[nH]c(N)c(S(=O)(=O)c3ccccc3F)c2n1 [Example 272]"
target = "human GPR43 (Homo sapiens (Human))"
reportedmeasurement = 7.47

[[record]]
molecule = "Nc1[nH]c2c(OC3CCC3)ncnc2c1S(=O)(=O)c1ccccc1 [Example 167]"
target = "human GPR43 (Homo sapiens (Human))"
reportedmeasurement = 7.12

[[record]]
molecule = "COc1ccc(S(=O)(=O)c2c(N)[nH]c3c(N4CCOC(C)(C)C4)nc(C)nc23)c(F)c1 [Example 241]"
target = "human GPR43 (Homo sapiens (Human))"
reportedmeasurement = 8.70

[[record]]
molecule = "Cc1ccc(S(=O)(=O)c2c(N)[nH]c3c(C4CCCCC4)ncnc23)cc1 [Example 45]"
target = "human GPR43 (Homo sapiens (Human))"
reportedmeasurement = 7.08

[[record]]
molecule = "CN(c1ncnc2c(S(=O)(=O)c3ccccc3)c(N)[nH]c12)C1CCOCC1 [Example 115]"
target = "human GPR43 (Homo sapiens (Human))"
reportedmeasurement = 6.10

[[record]]
molecule = "Cc1nc(OC2CCCOC2(C)C)c2[nH]c(N)c(S(=O)(=O)c3ccccc3F)c2n1 (stereo not drawn) [Example 296]"
target = "human GPR43 (Homo sapiens (Human))"
reportedmeasurement = 7.28

[[record]]
molecule = "CC1CCCN(c2ncnc3c(S(=O)(=O)c4ccccc4)c(N)[nH]c23)C1 (stereo not drawn) [Example 58]"
target = "human GPR43 (Homo sapiens (Human))"
reportedmeasurement = 7.77

[[record]]
molecule = "Cc1nc(N2CCOC(C(F)(F)F)C2)c2[nH]c(N)c(S(=O)(=O)c3ccccc3)c2n1 (stereo not drawn) [Example 225]"
target = "human GPR43 (Homo sapiens (Human))"
reportedmeasurement = 7.85

[[record]]
molecule = "Nc1[nH]c2c(-c3ccccc3)ncnc2c1S(=O)(=O)c1ccccc1 [Example 9]"
target = "human GPR43 (Homo sapiens (Human))"
reportedmeasurement = 7.32

[[record]]
molecule = "COCC1CN(c2ncnc3c(S(=O)(=O)c4ccccc4)c(N)[nH]c23)CCO1 (stereo not drawn) [Example 81]"
target = "human GPR43 (Homo sapiens (Human))"
reportedmeasurement = 5.92

[[record]]
molecule = "Cc1nc(N2CCO[C@@H](C(F)(F)F)C2)c2[nH]c(N)c(S(=O)(=O)c3cccc(F)c3F)c2n1 [Example 286]"
target = "human GPR43 (Homo sapiens (Human))"
reportedmeasurement = 8.52

[[record]]
molecule = "COc1ccc(S(=O)(=O)c2c(N)[nH]c3c(N4CCOC(C)C4)ncnc23)cc1F (stereo not drawn) [Example 124]"
target = "human GPR43 (Homo sapiens (Human))"
reportedmeasurement = 7.20

[[record]]
molecule = "COc1nc(N2CCOC(C)C2)c2[nH]c(N)c(S(=O)(=O)c3ccccc3F)c2n1 (stereo not drawn) [Example 271]"
target = "human GPR43 (Homo sapiens (Human))"
reportedmeasurement = 8.10


Numbers sourced from patent US10059713B2.
